B1: Cytoplasmic polyadenylation element-binding protein 2, residues 513 to 575; numbered along this chain, Q7Z5Q1 (parent)
chain: KRVEVKPYVLDDQMCDECQGARCGGKFAPFFCANVTCLQYYCEFCWANIHSRAGREFHKPLVK

- Variants of: B1
- protocol-summary: abundance fitness (aPCA) (normalised: wild type 0, dead -1); higher = more abundant; growth selection in yeast, the domain comes from the species named
- protocol-conditions: Homo sapiens
# abundance fitness >= -0.2 gives class 1, anything below gives class 0

// inclusive: abundance fitness at least -0.2? input: KRVEVKPYVLDDQMCDECQGARCGGKFAPFFCANVTCLQYYCEFCWANIHSRAGREFTKPLVK [H58T] class 0

KRVEVKPYELDDQMCDECQGARCGGKFAPFFCANVTCLQYYCEFCWANIHSRAGREFHKPLVK [V9E] ? class 1

KRVEVKPYVLDDQMCDECQGARCGGKFAPFHCANVTCLQYYCEFCWANIHSRAGREFHKPLVK [F31H] ? class 0

KRVEVKPYVLDDQMCDECFGARCGGKFAPFFCANVTCLQYYCEFCWANIHSRAGREFHKPLVK [Q19F] ? class 1

KRVEVKPYVLDDQMCDECQGARCGGKFAPFFCANVTCLQYYCEFCWANIHSRAGCEFHKPLVK [R55C] ? class 1

KRVEVKPYVLDDQMCDECQGARCGGKFAPFFCANVTCLQYYCEFCWANIHSRAGREFHKPLRK [V62R] ? class 1

KRVEVKPYVLDDQMCDECQGARCGGKFAPFFCANVTCLQYYCEFCMANIHSRAGREFHKPLVK [W46M] ? class 0

KRVEVKPYVLDDQMCDECQGARCGGKFAPFFCNNVTCLQYYCEFCWANIHSRAGREFHKPLVK [A33N] ? class 1

KRVCVKPYVLDDQMCDECQGARCGGKFAPFFCANVTCLQYYCEFCWANIHSRAGREFHKPLVK [E4C] ? class 0

KRVEVKPYVLDDQMCDECQGARCGGKFAPFFCANVTCLQYYCEQCWANIHSRAGREFHKPLVK [F44Q] ? class 1

KRVEVKPYVLDDQMCDECQGARRGGKFAPFFCANVTCLQYYCEFCWANIHSRAGREFHKPLVK [C23R] ? class 1

KRVEVKPYVLDDKMCDECQGARCGGKFAPFFCANVTCLQYYCEFCWANIHSRAGREFHKPLVK [Q13K] ? class 1

KRVEVKPYVLDDQMCDECQGARCGGKFAPFFCANVTCLQYYCEFCWANIHSRAGREFHKWLVK [P60W] ? class 0
